- testedOn: Phosphatidylinositol 4,5-bisphosphate 3-kinase catalytic subunit beta isoform (Homo sapiens)
- Sequence (P42338 whole entry, canonical isoform): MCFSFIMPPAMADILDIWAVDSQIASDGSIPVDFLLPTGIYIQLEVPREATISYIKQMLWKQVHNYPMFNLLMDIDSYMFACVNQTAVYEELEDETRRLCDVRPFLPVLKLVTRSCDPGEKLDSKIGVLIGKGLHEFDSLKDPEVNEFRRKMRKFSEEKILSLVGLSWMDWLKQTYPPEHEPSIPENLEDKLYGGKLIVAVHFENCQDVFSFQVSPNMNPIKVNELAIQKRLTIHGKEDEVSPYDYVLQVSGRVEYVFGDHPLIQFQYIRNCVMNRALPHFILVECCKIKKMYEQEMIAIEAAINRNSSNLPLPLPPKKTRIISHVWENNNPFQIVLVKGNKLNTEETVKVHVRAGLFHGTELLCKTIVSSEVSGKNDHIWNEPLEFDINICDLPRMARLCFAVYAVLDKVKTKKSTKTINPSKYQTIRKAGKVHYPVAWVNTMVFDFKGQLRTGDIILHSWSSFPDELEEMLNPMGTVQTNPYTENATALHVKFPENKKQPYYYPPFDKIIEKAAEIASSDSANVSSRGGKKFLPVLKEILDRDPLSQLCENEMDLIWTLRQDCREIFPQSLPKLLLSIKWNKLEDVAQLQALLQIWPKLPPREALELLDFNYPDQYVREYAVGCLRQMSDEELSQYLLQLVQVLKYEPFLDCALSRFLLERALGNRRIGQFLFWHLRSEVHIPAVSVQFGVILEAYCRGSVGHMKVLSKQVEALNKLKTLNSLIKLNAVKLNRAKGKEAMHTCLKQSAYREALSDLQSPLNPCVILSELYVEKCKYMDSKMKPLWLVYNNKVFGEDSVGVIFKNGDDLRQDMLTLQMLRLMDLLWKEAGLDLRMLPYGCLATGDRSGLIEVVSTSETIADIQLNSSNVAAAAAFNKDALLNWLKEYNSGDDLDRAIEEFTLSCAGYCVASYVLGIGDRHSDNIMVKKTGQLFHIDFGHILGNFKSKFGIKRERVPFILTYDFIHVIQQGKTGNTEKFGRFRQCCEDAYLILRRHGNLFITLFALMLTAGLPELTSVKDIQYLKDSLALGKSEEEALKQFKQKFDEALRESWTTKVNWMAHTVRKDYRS
- methodDescription: Inhibition of PI3Kbeta (unknown origin) assessed as reduction in ATP depletion using lipid substrate after 40 mins by Kinase-Glo luminescent assay
pIC50: −log10 of the molar value.

{"smilesData": "COc1ncc(-c2ccc3ncnc(NCCN4CCOCC4)c3c2)cc1C#N", "pIC50": 6.52}

----------
- testedOn: Phosphatidylinositol 4,5-bisphosphate 3-kinase catalytic subunit delta isoform (Homo sapiens, UniProt O00329)
- Sequence (O00329 whole entry): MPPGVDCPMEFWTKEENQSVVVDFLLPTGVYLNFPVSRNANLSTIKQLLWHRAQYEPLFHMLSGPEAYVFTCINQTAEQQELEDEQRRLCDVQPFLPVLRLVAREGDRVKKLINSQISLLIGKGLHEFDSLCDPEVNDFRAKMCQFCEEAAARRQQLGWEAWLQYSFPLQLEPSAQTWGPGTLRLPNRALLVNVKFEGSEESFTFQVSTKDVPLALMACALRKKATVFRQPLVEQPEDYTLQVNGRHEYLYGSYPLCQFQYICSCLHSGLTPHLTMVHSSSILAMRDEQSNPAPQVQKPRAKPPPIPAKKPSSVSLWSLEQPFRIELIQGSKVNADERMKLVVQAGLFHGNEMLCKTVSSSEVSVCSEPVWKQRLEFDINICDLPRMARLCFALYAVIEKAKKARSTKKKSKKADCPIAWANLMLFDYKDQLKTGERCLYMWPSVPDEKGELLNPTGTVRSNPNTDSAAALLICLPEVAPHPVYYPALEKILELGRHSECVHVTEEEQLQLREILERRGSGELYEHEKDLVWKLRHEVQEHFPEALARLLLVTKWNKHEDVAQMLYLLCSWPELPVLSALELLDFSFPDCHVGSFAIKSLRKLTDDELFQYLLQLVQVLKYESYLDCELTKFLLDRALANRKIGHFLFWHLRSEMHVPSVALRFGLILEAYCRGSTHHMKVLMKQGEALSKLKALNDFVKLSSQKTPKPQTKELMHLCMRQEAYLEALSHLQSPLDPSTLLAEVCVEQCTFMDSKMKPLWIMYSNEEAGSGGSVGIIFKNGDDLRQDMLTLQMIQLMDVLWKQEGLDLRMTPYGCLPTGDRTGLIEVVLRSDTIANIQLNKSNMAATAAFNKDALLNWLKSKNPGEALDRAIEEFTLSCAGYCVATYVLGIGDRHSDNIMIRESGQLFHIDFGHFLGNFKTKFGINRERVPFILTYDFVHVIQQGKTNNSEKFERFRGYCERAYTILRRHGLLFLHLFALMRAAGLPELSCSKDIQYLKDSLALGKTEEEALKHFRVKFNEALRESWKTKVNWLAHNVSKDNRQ
- methodDescription: Inhibition of PI3Kdelta (unknown origin) assessed as reduction in ATP depletion using lipid substrate after 40 mins by Kinase-Glo luminescent assay
pIC50: −log10 of the molar value.

{"smilesData": "COc1ncc(-c2ccc3ncnc(NCCN4CCOCC4)c3c2)cc1C#N", "pIC50": 7.43}

----------
- testedOn: Phosphatidylinositol 4,5-bisphosphate 3-kinase catalytic subunit alpha isoform (Homo sapiens, UniProt P42336)
- Sequence (P42336 whole entry, canonical isoform): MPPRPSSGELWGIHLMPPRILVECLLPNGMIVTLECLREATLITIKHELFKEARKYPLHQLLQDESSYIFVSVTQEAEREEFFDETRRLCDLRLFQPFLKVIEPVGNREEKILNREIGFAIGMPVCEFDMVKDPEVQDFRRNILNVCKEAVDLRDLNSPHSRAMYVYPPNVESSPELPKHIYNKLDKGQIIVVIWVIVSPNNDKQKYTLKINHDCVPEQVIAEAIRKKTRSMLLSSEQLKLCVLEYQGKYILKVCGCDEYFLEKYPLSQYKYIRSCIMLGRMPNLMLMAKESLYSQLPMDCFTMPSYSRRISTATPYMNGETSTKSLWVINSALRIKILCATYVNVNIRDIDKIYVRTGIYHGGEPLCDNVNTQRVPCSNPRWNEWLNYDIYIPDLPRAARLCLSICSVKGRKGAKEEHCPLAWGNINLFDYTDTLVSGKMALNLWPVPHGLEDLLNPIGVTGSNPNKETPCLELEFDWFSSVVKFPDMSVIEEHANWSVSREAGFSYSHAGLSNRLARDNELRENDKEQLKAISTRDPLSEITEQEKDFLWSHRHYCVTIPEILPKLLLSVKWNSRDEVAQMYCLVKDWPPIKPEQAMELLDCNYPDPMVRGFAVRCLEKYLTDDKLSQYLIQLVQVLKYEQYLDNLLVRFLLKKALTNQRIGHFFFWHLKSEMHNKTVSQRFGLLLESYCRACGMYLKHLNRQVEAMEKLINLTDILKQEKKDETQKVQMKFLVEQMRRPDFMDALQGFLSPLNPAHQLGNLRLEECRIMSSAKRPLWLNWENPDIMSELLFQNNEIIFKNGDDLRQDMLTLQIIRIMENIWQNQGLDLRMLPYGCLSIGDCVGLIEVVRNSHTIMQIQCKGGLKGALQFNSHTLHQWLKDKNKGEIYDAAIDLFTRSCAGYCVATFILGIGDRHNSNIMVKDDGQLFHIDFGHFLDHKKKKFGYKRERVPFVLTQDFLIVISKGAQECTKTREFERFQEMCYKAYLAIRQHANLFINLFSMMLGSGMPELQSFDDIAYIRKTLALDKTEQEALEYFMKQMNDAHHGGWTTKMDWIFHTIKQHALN
- methodDescription: Inhibition of PI3Kalpha (unknown origin) assessed as reduction in ATP depletion using lipid substrate after 40 mins by Kinase-Glo luminescent assay
pIC50: −log10 of the molar value.
Entries annotated with measured pIC50
measurementType: pIC50

{"smilesData": "COc1ncc(-c2ccc3ncnc(NCCN4CCCCC4)c3c2)cc1[N+](=O)[O-]", "reported": 5.50}
{"smilesData": "COc1ncc(-c2ccc3ncnc(NCCN4CCOCC4)c3c2)cc1C#N", "reported": 6.33}
{"smilesData": "COc1ncc(-c2ccc3ncnc(NCCN(C)C)c3c2)cc1C#N", "reported": 5.52}

----------
- System: HCT-116
- methodDescription: Antiproliferative activity against human HCT116 cells harboring PI3CA H1047R mutant after 72 hrs by MTT assay
- Type: functional, cell-based
- measurementContext: HCT-116, 72 h

{"smilesData": "COc1ccc(-c2ccc3ncnc(NCCN4CCCCC4)c3c2)cn1", "valueUnit": "µM", "IC50": 22.2}
{"smilesData": "COc1ncc(-c2ccc3ncnc(NCCN4CCOCC4)c3c2)cc1[N+](=O)[O-]", "valueUnit": "µM", "IC50": 1.8}
{"smilesData": "COc1ncc(-c2ccc3ncnc(NCCN4CCCCC4)c3c2)cc1C#N", "valueUnit": "µM", "IC50": 2.68}
{"smilesData": "COc1ccc(-c2ccc3ncnc(NCCN4CCOCC4)c3c2)cc1C(N)=O", "valueUnit": "µM", "IC50": 24.4}
{"smilesData": "COc1ncc(-c2ccc3ncnc(NCCN4CCCCC4)c3c2)cc1[N+](=O)[O-]", "valueUnit": "µM", "IC50": 0.65}
{"smilesData": "COc1ccc(-c2ccc3ncnc(NCCN(C)C)c3c2)cn1", "valueUnit": "µM", "IC50": 15.8}
{"smilesData": "COc1ccc(-c2ccc3ncnc(NCCN4CCCCC4)c3c2)cc1C(N)=O", "valueUnit": "µM", "IC50": 29.4}
{"smilesData": "COc1ncc(-c2ccc3ncnc(NCCN4CCCC4)c3c2)cc1C#N", "valueUnit": "µM", "IC50": 2.35}
{"smilesData": "CCN(CC)CCNc1ncnc2ccc(-c3ccc(OC)nc3)cc12", "valueUnit": "µM", "IC50": 9.56}
{"smilesData": "COc1ccc(-c2ccc3ncnc(NCCN4CCOCC4)c3c2)cn1", "valueUnit": "µM", "IC50": 38.6}
{"smilesData": "COc1ccc(-c2ccc3ncnc(NCCN4CCCC4)c3c2)cn1", "valueUnit": "µM", "IC50": 3.91}
{"smilesData": "COc1ncc(-c2ccc3ncnc(OCCN(C)C)c3c2)cc1[N+](=O)[O-]", "valueUnit": "µM", "IC50": 9.38}
{"smilesData": "COc1ncc(-c2ccc3ncnc(NCCN4CCOCC4)c3c2)cc1C#N", "valueUnit": "µM", "IC50": 0.51}
{"smilesData": "CCN(CC)CCNc1ncnc2ccc(-c3cnc(OC)c(C#N)c3)cc12", "valueUnit": "µM", "IC50": 2.05}
{"smilesData": "COc1ncc(-c2ccc3ncnc(OCCN(C)C)c3c2)cc1C#N", "valueUnit": "µM", "IC50": 5.16}
{"smilesData": "COc1ncc(-c2ccc3ncnc(NCCN(C)C)c3c2)cc1C#N", "valueUnit": "µM", "IC50": 0.56}
{"smilesData": "CCN(CC)CCNc1ncnc2ccc(-c3cnc(OC)c([N+](=O)[O-])c3)cc12", "valueUnit": "µM", "IC50": 7.33}

----------
- testedOn: Phosphatidylinositol 4,5-bisphosphate 3-kinase catalytic subunit gamma isoform (Homo sapiens)
- Sequence (P48736 whole entry, canonical isoform): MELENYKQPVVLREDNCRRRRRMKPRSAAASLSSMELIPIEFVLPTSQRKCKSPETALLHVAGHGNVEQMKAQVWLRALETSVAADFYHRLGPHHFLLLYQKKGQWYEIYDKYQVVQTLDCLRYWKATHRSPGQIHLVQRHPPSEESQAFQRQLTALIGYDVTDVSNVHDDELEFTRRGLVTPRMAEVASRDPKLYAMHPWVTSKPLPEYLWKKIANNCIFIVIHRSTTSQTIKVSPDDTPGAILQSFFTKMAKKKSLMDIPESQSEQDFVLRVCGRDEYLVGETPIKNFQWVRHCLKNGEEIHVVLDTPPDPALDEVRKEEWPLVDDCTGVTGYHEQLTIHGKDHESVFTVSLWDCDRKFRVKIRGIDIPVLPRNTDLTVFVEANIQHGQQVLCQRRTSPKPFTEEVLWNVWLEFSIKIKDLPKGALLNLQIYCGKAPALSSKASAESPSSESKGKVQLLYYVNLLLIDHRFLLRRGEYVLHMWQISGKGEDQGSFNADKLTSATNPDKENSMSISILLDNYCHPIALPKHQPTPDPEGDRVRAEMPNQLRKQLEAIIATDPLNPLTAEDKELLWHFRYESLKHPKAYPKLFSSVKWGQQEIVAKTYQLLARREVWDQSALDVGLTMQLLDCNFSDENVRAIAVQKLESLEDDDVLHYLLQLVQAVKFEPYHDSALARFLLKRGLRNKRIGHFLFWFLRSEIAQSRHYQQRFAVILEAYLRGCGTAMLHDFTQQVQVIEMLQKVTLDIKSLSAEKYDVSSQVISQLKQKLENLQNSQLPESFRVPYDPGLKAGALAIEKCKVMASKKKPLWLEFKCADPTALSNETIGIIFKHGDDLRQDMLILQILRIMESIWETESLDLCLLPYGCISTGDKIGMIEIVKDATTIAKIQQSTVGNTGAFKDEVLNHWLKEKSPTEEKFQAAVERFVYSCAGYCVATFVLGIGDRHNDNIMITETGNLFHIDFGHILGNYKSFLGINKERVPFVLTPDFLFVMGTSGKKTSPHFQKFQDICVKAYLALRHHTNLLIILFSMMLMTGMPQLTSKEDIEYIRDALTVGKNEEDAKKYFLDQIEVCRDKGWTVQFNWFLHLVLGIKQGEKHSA
- methodDescription: Inhibition of PI3Kgamma (unknown origin) assessed as reduction in ATP depletion using lipid substrate after 40 mins by Kinase-Glo luminescent assay
pIC50: −log10 of the molar value.

{"smilesData": "COc1ncc(-c2ccc3ncnc(NCCN4CCOCC4)c3c2)cc1C#N", "pIC50": 6.03}

The measurements presented in this section are drawn from ChEMBL document CHEMBL4477271.
